# target.or.test.system: HLA-A*1101 (human)
# experiment.notes: competition with 125I-labeled standard peptide for purified HLA, gel filtration
metric.name: binding affinity ratio (IC50 of standard peptide / IC50 of test peptide)
Give bare numbers.

Which measured binding affinity ratio (IC50 of standard peptide / IC50 of test peptide) value corresponds to GLSFTDLVR (modifications not checked) [HPV18 E1 position 223 peptide …] ? 0.0025

// repeat for IAQLKDLLK (modifications not checked) [HPV18 E1 position 198 peptide …] and report 0.0027

// repeat for GVLILALLR (modifications not checked) [HPV18 E1 position 279 peptide …] and report 0.14

// repeat for ISLNSGQKK (modifications not checked) [HPV18 E1 position 116 peptide …] and report 0.0026

// repeat for ATMCKHYRR (modifications not checked) [HPV18 E1 position 413 peptide …] and report 0.28

Give me binding affinity ratio (IC50 of standard peptide / IC50 of test peptide) for each of these binders, listed below.
1. ALLRYKCGK (modifications not checked) [HPV18 E1 position 284 peptide …]
2. FITFLGALK (modifications not checked) [HPV18 E1 position 460 peptide …]
3. CATMCKHYR (modifications not checked) [HPV18 E1 position 412 peptide …]

0.14
0.037
0.011
